B1: library; numbered along this chain (parent)
chain: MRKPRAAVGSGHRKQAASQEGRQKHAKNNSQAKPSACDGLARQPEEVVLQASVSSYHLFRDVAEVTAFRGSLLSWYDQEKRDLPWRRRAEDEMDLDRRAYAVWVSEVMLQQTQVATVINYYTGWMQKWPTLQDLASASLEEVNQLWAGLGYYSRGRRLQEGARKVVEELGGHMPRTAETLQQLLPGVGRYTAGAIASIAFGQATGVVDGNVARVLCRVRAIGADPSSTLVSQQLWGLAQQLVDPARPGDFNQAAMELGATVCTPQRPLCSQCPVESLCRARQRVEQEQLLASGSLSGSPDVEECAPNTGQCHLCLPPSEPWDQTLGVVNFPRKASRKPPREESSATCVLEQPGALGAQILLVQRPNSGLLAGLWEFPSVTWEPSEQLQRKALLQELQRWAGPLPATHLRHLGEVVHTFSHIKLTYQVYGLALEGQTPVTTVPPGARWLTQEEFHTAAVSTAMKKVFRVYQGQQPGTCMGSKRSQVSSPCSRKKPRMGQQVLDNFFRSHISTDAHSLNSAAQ

Variants of: B1
Assay: 8OG:A repair function score (normalized; synonymous = 0, nonsense = -1) (normalized log-likelihood score); higher = more repair activity (WT-like);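 further: cells sorted at 72 h after reporter transfection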
Conditions: with 8OG:A DNA repair reporter (GFP) in HEK-293 MUTYH KO cells
Category | rule: reported 8OG:A repair function score within range, see lower bin = under -0.2, middle bin = from -0.2 up to -0.04, upper bin = -0.04 and over

Please classify: A456K
lower bin

Please classify: L370A
lower bin

Please classify: V328D
lower bin

Please classify: L184H
lower bin

Please classify: L369S
middle bin

Please classify: T460C
middle bin

Please classify: S480W
upper bin

Please classify: V284P
lower bin

Please classify: V102Y
lower bin

Please classify: A238V
upper bin

Please classify: V415C
upper bin

Please classify: G188Y
lower bin

Please classify: A212K
upper bin

Please classify: L58M
upper bin

Please classify: N143S
middle bin

Please classify: Q484E
upper bin

Please classify: V65W
middle bin

Please classify: V362M
lower bin

Please classify: V48K
upper bin
